# Assay Target: Collagenase (Homo sapiens, UniProt P03956)
# Sequence (P03956 100-469): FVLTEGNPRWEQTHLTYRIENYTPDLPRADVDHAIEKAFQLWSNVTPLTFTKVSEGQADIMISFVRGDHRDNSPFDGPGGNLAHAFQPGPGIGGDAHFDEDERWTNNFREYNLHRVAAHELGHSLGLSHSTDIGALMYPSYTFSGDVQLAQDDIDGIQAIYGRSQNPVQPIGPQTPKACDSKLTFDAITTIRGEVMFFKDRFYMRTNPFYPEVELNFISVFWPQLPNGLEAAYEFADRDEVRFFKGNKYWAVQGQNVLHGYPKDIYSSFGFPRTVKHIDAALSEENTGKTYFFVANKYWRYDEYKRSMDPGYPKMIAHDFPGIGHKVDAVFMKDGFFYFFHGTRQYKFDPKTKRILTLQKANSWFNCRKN
# Assay Protocol: MMP inhibition by particle concentration fluorescence technique (collagenase)
# Format: biochemical
# Experimental Parameters: pH 7.5; 15 min enzyme preincubation; substrate 1-3 h at room temperature; read-out: MMP Inhibition Constants, Collagenase Ki
pKi: −log10 of the molar value.
Endpoint: pKi

CNC(=O)C(Cc1ccccc1)N1CCC(CC(=O)NO)(CC(C)C)C1=O (centres unmarked) [Example 21] :: 7.66

[I] COc1ccc(S(=O)(=O)NCC[C@@H](C(=O)NO)[C@]2(CC(C)C)CCN(CCc3ccccc3)C2=O)cc1 (relative stereo) [Example 82]
[II] CNC(=O)[C@H](Cc1ccccc1)N1CC[C@](CC(=O)NO)(CC2CCCC2)C1=O [Example 52]
Query :: Field: lower recorded pKi (choose I or II ) // output: label of the selected item
Result :: I
(I: 5.62, II: 8.89)

[A] CC(C)C[C@@]1([C@@H](CCN2Cc3ccc(F)cc3C2=O)C(=O)NO)CCN(CCc2ccccc2)C1=O [Example 87]
[B] CC(C)C[C@@]1([C@@H](CCN2C(=O)c3ccccc3S2(=O)=O)C(=O)NO)CCN(CCc2ccccc2)C1=O (relative stereo) [Example 69]
Query :: Field: lower recorded pKi (choose A or B ) // output: label of the selected item
Result :: B

[I] CC(C)C[C@@]1([C@@H](NS(=O)(=O)c2ccc(F)cc2)C(=O)NO)CCN(CCc2ccccc2)C1=O (relative stereo) [Example 92]
[II] CNC(=O)[C@H](Cc1ccccc1)N1CC[C@](CC(=O)NO)(CC(C)C)C1=O [Example 30]
Query :: Between the entries labelled I and II , which has a larger pKi value on record? // output: label of the selected item
Result :: II
(II: 7.80, I: 6.43)
